FYI, the data here is from patent US12180226B2.

This listing pairs compounds with measured log10 of EC50.
STUDY TARGET: RIPK1 (recombinant GST-RIPK1 kinase domain, residues 1-327) (Homo sapiens (Human), UniProt Q13546)
Sequence (Q13546 1-327): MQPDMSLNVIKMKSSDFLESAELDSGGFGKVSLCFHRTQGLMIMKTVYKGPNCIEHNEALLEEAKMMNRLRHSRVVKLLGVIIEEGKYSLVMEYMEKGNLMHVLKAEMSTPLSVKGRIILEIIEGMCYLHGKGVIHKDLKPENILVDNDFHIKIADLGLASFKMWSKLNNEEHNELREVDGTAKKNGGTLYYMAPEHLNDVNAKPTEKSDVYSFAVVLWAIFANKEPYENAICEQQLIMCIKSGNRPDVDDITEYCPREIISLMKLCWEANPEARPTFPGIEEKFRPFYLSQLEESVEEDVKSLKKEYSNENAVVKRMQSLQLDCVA
METHOD SUMMARY: RIPK1-ADP-Glo Enzymatic Assay
Assay type: biochemical
STATED CONDITIONS: ADP-Glo; 25 nM GST-RIPK1, 300 μM ATP; assay lower limit ~25 nM; read-out: RIPK1 V0 Ec50
TEST READOUT: log10 of EC50 (log10 of the value in nM)

smiles_text=COC(=O)c1cc(C)c(N2CCC3(CC2)O[C@@H]2CC[C@@H](c4ccccc4)N2C3=O)nc1C#N meas_value=2.73
smiles_text=N#CN1CCC2(CC1)O[C@@H]1CC[C@@H](c3cc(F)cc(F)c3)N1C2=O meas_value=2.18
smiles_text=O=C1N2[C@@H](CC[C@H]2c2ccccc2F)OC12CN(c1cc(-c3ccccc3)no1)C2 meas_value=1.54
smiles_text=N#Cc1ccc(C(=O)N2CCC3(CC2)O[C@@H]2CC[C@@H](c4cc(F)cc(F)c4)N2C3=O)c(Cl)c1 meas_value=2.59
smiles_text=CC(C)(C)OC(=O)/C=C/c1ccc(N2CCC3(CC2)O[C@@H]2CC[C@@H](c4ccccc4)N2C3=O)nc1 meas_value=1.48

====

This listing pairs molecules with measured EC50.
STUDY TARGET: RIPK1 (recombinant GST-RIPK1 kinase domain, residues 1-327) (Homo sapiens (Human), UniProt Q13546)
METHOD SUMMARY: RIPK1-ADP-Glo Enzymatic Assay
Assay type: biochemical
STATED CONDITIONS: ADP-Glo; 25 nM GST-RIPK1, 300 μM ATP; assay lower limit ~25 nM; read-out: RIPK1 V0 Ec50
TEST READOUT: EC50

molecule=O=C(c1cnsc1)N1CCC2(CC1)O[C@@H]1CC[C@@H](c3cc(F)cc(F)c3)N1C2=O test_readout=EC50 meas_value="48.3 nM"
molecule=O=C1N2[C@@H](CC[C@H]2c2cccc(F)c2)OC12CCN(c1ccnc3ccnn13)CC2 test_readout=EC50 meas_value="< 25 nM"
molecule=O=C1N2[C@@H](CC[C@H]2c2ccccc2)OC12CCN(c1ccc(-n3ccnc3)nn1)CC2 test_readout=EC50 meas_value="93 nM"
molecule=Cc1ocnc1C(=O)N1CCC2(CC1)O[C@@H]1CC[C@@H](c3ccccc3)N1C2=O test_readout=EC50 meas_value="34.9 nM"
molecule="N#Cc1cc(N2CCC3(O[C@@H]4CC[C@@H](c5ccccc5)N4C3=O)C(F)C2)ncn1 (single isomer, unassigned) [Example 4.94]" test_readout=EC50 meas_value="154 nM"
molecule=O=C1N2[C@@H](CC[C@H]2c2ccccc2)OC12CCN(c1cc(-c3cnn(C(F)F)c3)ncn1)CC2 test_readout=EC50 meas_value="< 25 nM"
molecule=O=C1N2[C@@H](CC[C@H]2c2cc(F)cc(F)c2)OC12CN(c1cccc3ncnn13)C2 test_readout=EC50 meas_value="63.7 nM"

====

STUDY TARGET: RIPK1 (recombinant GST-RIPK1 kinase domain, residues 1-327) (Homo sapiens (Human), UniProt Q13546)
METHOD SUMMARY: RIPK1-ADP-Glo Enzymatic Assay
Format: biochemical
STATED CONDITIONS: ADP-Glo; 25 nM GST-RIPK1, 300 μM ATP; assay lower limit ~25 nM; read-out: RIPK1 V0 Ec50
pEC50: −log10 of the molar value. Where a name gives a salt, the structure may show the parent alone.
TEST READOUT: pEC50

compound="CC1CN(C(=O)c2ccccc2)CCC12O[C@@H]1CC[C@@H](c3cc(F)cc(F)c3)N1C2=O (single isomer, unassigned) [Example 2.4]" meas_value="> 7.60"
compound=O=C(c1ccc(F)cc1)N1CCC2(CC1)O[C@@H]1CC[C@@H](c3cc(F)cc(F)c3)N1C2=O meas_value="> 7.60"
compound=O=C1N2[C@H](OC13CCN(c1ccnc4c(F)cnn14)CC3)[C@H](O)C[C@H]2c1ccccc1 meas_value="> 7.60"
compound=CCOc1cccc(C(=O)N2CCC3(CC2)O[C@@H]2CC[C@@H](c4ccccc4)N2C3=O)c1 meas_value="> 7.60"
compound=CC(C)Oc1cc(N2CCC3(CC2)O[C@@H]2CC[C@@H](c4cc(F)cc(F)c4)N2C3=O)ncc1C#N meas_value="> 7.60"
compound=N#Cc1ccc(C(=O)N2CCC3(CC2)O[C@@H]2CC[C@@H](c4cc(F)cc(F)c4)N2C3=O)c(F)c1 meas_value=6.67
compound="O=C1N2[C@@H](CC[C@H]2c2cc(F)cc(F)c2)OC12CCN(c1ccc(C3CCC3)c3ccnn13)CC2 [Example 18.1, TFA salt]" meas_value=6.80
